tested on: MCF-7; assay: Cytotoxicity, standard NCI assay with sulforhodamine B, 96 h; settings: Homo sapiens, MCF7, 96 h, read-out: Cytotoxicity (nM, ± SD) MCF-7
Returns: string. Value is 1 (yes) if measured IC50 is below 20 nM, and 0 (no) if it is greater than or equal to it.

# example entries with known answers
# Compound, Qualitative Label
rows = [
    ("CSc1cc(/C=C(\\C)[C@@H]2C[C@@H]3N(CCO)[C@]3(C)CCC[C@H](C)[C@H](O)[C@@H](C)C(=O)C(C)(C)[C@@H](O)CC(=O)O2)nn1C (some centres unmarked)", "1 (yes)"),
    ("C/C(=C\\c1csc(N)n1)[C@@H]1C[C@@H]2N(CCO)[C@]2(C)CCC[C@H](C)[C@H](O)[C@@H](C)C(=O)C(C)(C)[C@@H](O)CC(=O)O1 (some centres unmarked)", "0 (no)"),
    ("C/C(=C\\c1csc(CN)n1)[C@@H]1C[C@@H]2N(CCO)[C@]2(C)CCC[C@H](C)[C@H](O)[C@@H](C)C(=O)C(C)(C)[C@@H](O)CC(=O)O1 (some centres unmarked)", "0 (no)"),
]

Is the reported IC50 for CSc1nc(/C=C(\C)[C@@H]2C[C@@H]3N[C@]3(C)CCC[C@H](C)[C@H](O)[C@@H](C)C(=O)C(C)(C)[C@@H](O)CC(=O)O2)cs1 strictly below 20 nM?
1 (yes)

And then C/C(=C\c1ccccn1)[C@@H]1C[C@@H]2N(CCO)[C@]2(C)CCC[C@H](C)[C@H](O)[C@@H](C)C(=O)C(C)(C)[C@@H](O)CC(=O)O1 (some centres unmarked) , what is it?
0 (no)

And then CC(=O)O[C@H]1C(=O)[C@@]2(C)[C@H]([C@H](OC(=O)c3ccccc3)[C@]3(O)C[C@H](OC(=O)[C@H](O)[C@@H](NC(=O)c4ccccc4)c4ccccc4)C(C)=C1C3(C)C)[C@]1(OC(C)=O)CO[C@@H]1C[C@@H]2O [PTX, paclitaxel, reference compound] , what is it?
1 (yes)

And then C/C(=C\c1csc(CCN)n1)[C@@H]1C[C@@H]2N(CCO)[C@]2(C)CCC[C@H](C)[C@H](O)[C@@H](C)C(=O)C(C)(C)[C@@H](O)CC(=O)O1 (some centres unmarked) , what is it?
1 (yes)

And then CSc1nc(/C=C(\C)[C@@H]2C[C@@H]3N(CC4CC4)[C@]3(C)CCC[C@H](C)[C@H](O)[C@@H](C)C(=O)C(C)(C)[C@@H](O)CC(=O)O2)cs1 (some centres unmarked) , what is it?
1 (yes)

----------
tested on: OVCAR-8; assay: Cytotoxicity, standard NCI assay with sulforhodamine B, 96 h; settings: Homo sapiens, OVCAR-8, 96 h, read-out: Cytotoxicity (nM, ± SD) OVCAR-8
Below: a set of entries, each annotated with reported IC50.
Enter your answer as a number in nM; do not include the unit.

Reference set, count: 3
# Compound, IC50 [nM]
data = [
    ("C/C(=C\\c1csc(C)n1)[C@@H]1C[C@@H]2N[C@]2(C)CCC[C@H](C)[C@H](O)[C@@H](C)C(=O)C(C)(C)[C@@H](O)CC(=O)O1", 1.5),
    ("C/C(=C\\c1csc(CN)n1)[C@@H]1C[C@@H]2N(CCO)[C@]2(C)CCC[C@H](C)[C@H](O)[C@@H](C)C(=O)C(C)(C)[C@@H](O)CC(=O)O1 (stereo partly shown)", 93),
    ("CSc1nc(/C=C(\\C)[C@@H]2C[C@@H]3N[C@]3(C)CCC[C@H](C)[C@H](O)[C@@H](C)C(=O)C(C)(C)[C@@H](O)CC(=O)O2)cs1", 16),
]

Moving on to another compound below.
IC50 lookup needed for CSc1nc(/C=C(\C)[C@@H]2C[C@@H]3N(CC4CC4)[C@]3(C)CCC[C@H](C)[C@H](O)[C@@H](C)C(=O)C(C)(C)[C@@H](O)CC(=O)O2)cs1 (stereo partly shown) , thanks.
15
